Test: Approximate solubility at 25° C. by visual observation
Type: physicochemical
Settings: organic solvent or mixture, thermodynamic from solid, Acetonitrile
property: solubility

Which solubility is reported for this molecule? O=C(N[C@H](CN1CCCC1)[C@H](O)c1ccc(OC2CC2)c(Cl)c1)/C(=N/O)c1ccc2cc(Cl)ccc2c1 [Crystalline Form A of Compound 1] < 5000 µg/mL

###

Assay: physchem
Conditions: 50 mM phosphate buffer, pH 6.8, 37 °C, pH 6.8, aqueous buffer, thermodynamic from solid
property: solubility at 24 h (µg/mL)
Reply with just the number (in µg/mL).

Which solubility at 24 h is reported for this molecule? O=C(N[C@H](CN1CCCC1)[C@H](O)c1ccc(OC2CC2)c(Cl)c1)/C(=N/O)c1ccc2cc(Cl)ccc2c1 [Crystalline Form A of Compound 1] 5

###

Assay: physchem
Details: 50 mM acetate buffer, pH 4.5, 37 °C, pH 4.5, aqueous buffer, thermodynamic from solid
property: solubility at 2 h (µg/mL)
Reply with just the number (in µg/mL).

Which solubility at 2 h is reported for this compound? O=C(N[C@H](CN1CCCC1)[C@H](O)c1ccc(OC2CC2)c(Cl)c1)/C(=N/O)c1ccc2cc(Cl)ccc2c1 [Crystalline Form A of Compound 1] 230

###

Target sequence: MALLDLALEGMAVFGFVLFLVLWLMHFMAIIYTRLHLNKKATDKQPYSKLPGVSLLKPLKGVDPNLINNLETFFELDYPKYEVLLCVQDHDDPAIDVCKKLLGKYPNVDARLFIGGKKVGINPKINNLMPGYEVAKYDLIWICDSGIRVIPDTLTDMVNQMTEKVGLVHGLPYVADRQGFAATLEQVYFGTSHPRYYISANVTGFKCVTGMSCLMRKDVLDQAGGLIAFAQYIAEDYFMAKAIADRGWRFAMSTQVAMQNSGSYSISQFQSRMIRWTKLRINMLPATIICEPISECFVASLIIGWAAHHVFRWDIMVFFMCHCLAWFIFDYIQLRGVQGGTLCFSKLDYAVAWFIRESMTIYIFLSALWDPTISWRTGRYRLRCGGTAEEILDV
Recorded IC50 by entry
Reply with just the number (in nM).

compound	property	measured.result
O=C(N[C@H](CN1CCCC1)[C@H](O)c1ccc(OC2CC2)c(Cl)c1)/C(=N/O)c1ccc2cc(Cl)ccc2c1 [Crystalline Form A of Compound 1]	IC50	6.15

Now take the following compound into account.
Which IC50 is reported for this compound? O=C(N[C@H](CN1CCCC1)[C@H](O)c1ccc(OC2CC2)c(Cl)c1)/C(=N\O)c1ccc2cc(Cl)ccc2c1 [Geometric isomer of Compound 1] 14.8

###

Assay: Approximate solubility at 25° C. by visual observation
Format: physicochemical
Conditions: organic solvent or mixture, thermodynamic from solid, Ethanol
property: solubility

Which solubility is reported for this molecule? O=C(N[C@H](CN1CCCC1)[C@H](O)c1ccc(OC2CC2)c(Cl)c1)/C(=N/O)c1ccc2cc(Cl)ccc2c1 [Crystalline Form A of Compound 1] 5000 to 5500 µg/mL

###

Assay: Approximate solubility at 25° C. by visual observation
Type: physicochemical
Details: organic solvent or mixture, thermodynamic from solid, Acetone
Method: Free form Crystalline Form A of Compound 1 was used as the starting material for salt screening and selection study. […] Max. volume of each solvent added was 1 mL.
property: solubility

Which solubility is reported for this compound? O=C(N[C@H](CN1CCCC1)[C@H](O)c1ccc(OC2CC2)c(Cl)c1)/C(=N/O)c1ccc2cc(Cl)ccc2c1 [Crystalline Form A of Compound 1] 16.7 to 25 mg/mL
